System: platelet aggregation
Test: Inhibition of platelet aggregation in rabbit platelet-rich plasma (Born's turbimetry)
Assay type: cell-based
Details: Oryctolagus cuniculus, read-out: Antiplatelet activity, 50% Inhibitory concentration, Collagen
PARAMETER MEASURED: IC50 (µM)

compound="CC(=O)Oc1ccccc1C(=O)O [aspirin, reference compound]" tgt="platelet aggregation" value_unit=µM result_value=200
